# testMethodNotes: Stability of M6G salts at room temperature over 6 years, HPLC
# Format: physicochemical
# testParameters: 0 years
observable: Unknown related substances (sum area %)

input: State its Unknown related substances (sum area %) for this compound: CN1CC[C@]23c4c5ccc(O)c4O[C@H]2[C@@H](O[C@@H]2O[C@H](C(=O)O)[C@@H](O)[C@H](O)[C@H]2O)C=C[C@H]3[C@H]1C5.Cl [Morphine-6-glucuronide hydrochloride]
output: <0.1 area %

input: State its Unknown related substances (sum area %) for this compound: CN1CC[C@]23c4c5ccc(O)c4O[C@H]2[C@@H](O[C@@H]2O[C@H](C(=O)O)[C@@H](O)[C@H](O)[C@H]2O)C=C[C@H]3[C@H]1C5 [Morphine-6-glucuronide base, morphine-6-β-D-glucuronide]
output: <0.1 area %

input: State its Unknown related substances (sum area %) for this compound: Br.CN1CC[C@]23c4c5ccc(O)c4O[C@H]2[C@@H](O[C@@H]2O[C@H](C(=O)O)[C@@H](O)[C@H](O)[C@H]2O)C=C[C@H]3[C@H]1C5 [Morphine-6-glucuronide hydrobromide]
output: <0.1 area %

input: State its Unknown related substances (sum area %) for this compound: CN1CCC23c4c5ccc(O)c4OC2C(OC2OC(C(=O)O)C(O)C(O)C2O)C=CC3C1C5.CN1CCC23c4c5ccc(O)c4OC2C(OC2OC(C(=O)O)C(O)C(O)C2O)C=CC3C1C5.O=S(=O)(O)O (stereo not shown) [Morphine-6-glucuronide sulphate]
output: 0.2 area %

----------
# testMethodNotes: Stability indicating HPLC assay and related substances on storage (Example 3)
# Assay type: physicochemical
# testParameters: Initial
observable: Total Known (%)
Unit % implied. Number only.

The examples below pair each entry with its known result.
input: State its Total Known for this compound: CN1CC[C@]23c4c5ccc(O)c4O[C@H]2[C@@H](O[C@@H]2O[C@H](C(=O)O)[C@@H](O)[C@H](O)[C@H]2O)C=C[C@H]3[C@H]1C5.Cl [Morphine-6-glucuronide hydrochloride]
output: 0.77

input: State its Total Known for this compound: CN1CCC23c4c5ccc(O)c4OC2C(OC2OC(C(=O)O)C(O)C(O)C2O)C=CC3C1C5.CN1CCC23c4c5ccc(O)c4OC2C(OC2OC(C(=O)O)C(O)C(O)C2O)C=CC3C1C5.O=S(=O)(O)O (centres unmarked) [Morphine-6-glucuronide sulphate]
output: 1.08

input: State its Total Known for this compound: CN1CCC23c4c5ccc(O)c4OC2C(OC2OC(C(=O)O)C(O)C(O)C2O)C=CC3C1C5.CN1CCC23c4c5ccc(O)c4OC2C(OC2OC(C(=O)O)C(O)C(O)C2O)C=CC3C1C5.O=C(O)C=CC(=O)O (centres unmarked) [Morphine-6-glucuronide fumarate]
output: 0.86

input: State its Total Known for this compound: CN1CCC23c4c5ccc(O)c4OC2C(OC2OC(C(=O)O)C(O)C(O)C2O)C=CC3C1C5.CN1CCC23c4c5ccc(O)c4OC2C(OC2OC(C(=O)O)C(O)C(O)C2O)C=CC3C1C5.O=C(O)C=CC(=O)O (centres unmarked) [Morphine-6-glucuronide maleate]
output: 0.85

--- query ---
input: State its Total Known for this compound: CN1CCC23c4c5ccc(O)c4OC2C(OC2OC(C(=O)O)C(O)C(O)C2O)C=CC3C1C5.O=P(O)(O)O (centres unmarked) [Morphine-6-glucuronide phosphate]
output: 0.86

----------
Known Colour of a selection of molecules
# testMethodNotes: Colour of solution by visible spectrophotometry on storage (Example 3)
# Format: physicochemical
# testParameters: 3 months, 40° C./75% RH; 5% w/v solution in water
Unit Abs@420 nm implied. Number only.

The examples below pair each entry with its known result.
input: State its Colour for this molecule: CN1CC[C@]23c4c5ccc(O)c4O[C@H]2[C@@H](O[C@@H]2O[C@H](C(=O)O)[C@@H](O)[C@H](O)[C@H]2O)C=C[C@H]3[C@H]1C5.Cl [Morphine-6-glucuronide hydrochloride]
output: 2.107

input: State its Colour for this molecule: CN1CCC23c4c5ccc(O)c4OC2C(OC2OC(C(=O)O)C(O)C(O)C2O)C=CC3C1C5.O=P(O)(O)O (stereo not shown) [Morphine-6-glucuronide phosphate]
output: 0.878

input: State its Colour for this molecule: CN1CCC23c4c5ccc(O)c4OC2C(OC2OC(C(=O)O)C(O)C(O)C2O)C=CC3C1C5.CN1CCC23c4c5ccc(O)c4OC2C(OC2OC(C(=O)O)C(O)C(O)C2O)C=CC3C1C5.O=C(O)C=CC(=O)O (stereo not shown) [Morphine-6-glucuronide fumarate]
output: 1.008

input: State its Colour for this molecule: CN1CC[C@]23c4c5ccc(O)c4O[C@H]2[C@@H](O[C@@H]2O[C@H](C(=O)O)[C@@H](O)[C@H](O)[C@H]2O)C=C[C@H]3[C@H]1C5 [Morphine-6-glucuronide base, morphine-6-β-D-glucuronide]
output: 0.680

New cases:
input: State its Colour for this molecule: CN1CCC23c4c5ccc(O)c4OC2C(OC2OC(C(=O)O)C(O)C(O)C2O)C=CC3C1C5.CN1CCC23c4c5ccc(O)c4OC2C(OC2OC(C(=O)O)C(O)C(O)C2O)C=CC3C1C5.O=S(=O)(O)O (stereo not shown) [Morphine-6-glucuronide sulphate]
output: 1.056

input: State its Colour for this molecule: CN1CCC23c4c5ccc(O)c4OC2C(OC2OC(C(=O)O)C(O)C(O)C2O)C=CC3C1C5.CN1CCC23c4c5ccc(O)c4OC2C(OC2OC(C(=O)O)C(O)C(O)C2O)C=CC3C1C5.O=C(O)C=CC(=O)O (stereo not shown) [Morphine-6-glucuronide maleate]
output: 0.879

input: State its Colour for this molecule: Br.CN1CC[C@]23c4c5ccc(O)c4O[C@H]2[C@@H](O[C@@H]2O[C@H](C(=O)O)[C@@H](O)[C@H](O)[C@H]2O)C=C[C@H]3[C@H]1C5 [Morphine-6-glucuronide hydrobromide]
output: 0.066

----------
# testMethodNotes: Visual appearance on storage (Example 3)
# Type: physicochemical
# testParameters: Initial
observable: Appearance

input: State its Appearance for this compound: CN1CCC23c4c5ccc(O)c4OC2C(OC2OC(C(=O)O)C(O)C(O)C2O)C=CC3C1C5.O=P(O)(O)O (stereo not shown) [Morphine-6-glucuronide phosphate]
output: White crystalline powder

input: State its Appearance for this compound: CN1CCC23c4c5ccc(O)c4OC2C(OC2OC(C(=O)O)C(O)C(O)C2O)C=CC3C1C5.CN1CCC23c4c5ccc(O)c4OC2C(OC2OC(C(=O)O)C(O)C(O)C2O)C=CC3C1C5.O=S(=O)(O)O (stereo not shown) [Morphine-6-glucuronide sulphate]
output: White crystalline powder

input: State its Appearance for this compound: CN1CC[C@]23c4c5ccc(O)c4O[C@H]2[C@@H](O[C@@H]2O[C@H](C(=O)O)[C@@H](O)[C@H](O)[C@H]2O)C=C[C@H]3[C@H]1C5 [Morphine-6-glucuronide base, morphine-6-β-D-glucuronide]
output: White crystalline powder

input: State its Appearance for this compound: Br.CN1CC[C@]23c4c5ccc(O)c4O[C@H]2[C@@H](O[C@@H]2O[C@H](C(=O)O)[C@@H](O)[C@H](O)[C@H]2O)C=C[C@H]3[C@H]1C5 [Morphine-6-glucuronide hydrobromide]
output: White crystalline powder

input: State its Appearance for this compound: CN1CC[C@]23c4c5ccc(O)c4O[C@H]2[C@@H](O[C@@H]2O[C@H](C(=O)O)[C@@H](O)[C@H](O)[C@H]2O)C=C[C@H]3[C@H]1C5.Cl [Morphine-6-glucuronide hydrochloride]
output: White crystalline powder

New cases:
input: State its Appearance for this compound: CN1CCC23c4c5ccc(O)c4OC2C(OC2OC(C(=O)O)C(O)C(O)C2O)C=CC3C1C5.CN1CCC23c4c5ccc(O)c4OC2C(OC2OC(C(=O)O)C(O)C(O)C2O)C=CC3C1C5.O=C(O)C=CC(=O)O (stereo not shown) [Morphine-6-glucuronide fumarate]
output: White crystalline powder

input: State its Appearance for this compound: CN1CCC23c4c5ccc(O)c4OC2C(OC2OC(C(=O)O)C(O)C(O)C2O)C=CC3C1C5.CN1CCC23c4c5ccc(O)c4OC2C(OC2OC(C(=O)O)C(O)C(O)C2O)C=CC3C1C5.O=C(O)C=CC(=O)O (stereo not shown) [Morphine-6-glucuronide maleate]
output: White crystalline powder

----------
Known Total Unknown of a selection of compounds
# testMethodNotes: Stability indicating HPLC assay and related substances on storage (Example 3)
# Type: physicochemical
# testParameters: 3 months, 40° C./75% RH
Write the figure, then the unit, nothing else.

input: State its Total Unknown for this compound: CN1CCC23c4c5ccc(O)c4OC2C(OC2OC(C(=O)O)C(O)C(O)C2O)C=CC3C1C5.CN1CCC23c4c5ccc(O)c4OC2C(OC2OC(C(=O)O)C(O)C(O)C2O)C=CC3C1C5.O=C(O)C=CC(=O)O (centres unmarked) [Morphine-6-glucuronide maleate]
output: 6.93%

--- query ---
input: State its Total Unknown for this compound: Br.CN1CC[C@]23c4c5ccc(O)c4O[C@H]2[C@@H](O[C@@H]2O[C@H](C(=O)O)[C@@H](O)[C@H](O)[C@H]2O)C=C[C@H]3[C@H]1C5 [Morphine-6-glucuronide hydrobromide]
output: 0.00%

Data provenance is patent US20060166900A1.
